Hey, just so you know, these numbers are from paper PMC10247784.

# TGT: human TAS2R1 (Homo sapiens, UniProt Q9NYW7)
# Construct: expressed in transfected cells; host or cells: HEK293T-Gα16gust44
# Sequence (Q9NYW7 whole entry): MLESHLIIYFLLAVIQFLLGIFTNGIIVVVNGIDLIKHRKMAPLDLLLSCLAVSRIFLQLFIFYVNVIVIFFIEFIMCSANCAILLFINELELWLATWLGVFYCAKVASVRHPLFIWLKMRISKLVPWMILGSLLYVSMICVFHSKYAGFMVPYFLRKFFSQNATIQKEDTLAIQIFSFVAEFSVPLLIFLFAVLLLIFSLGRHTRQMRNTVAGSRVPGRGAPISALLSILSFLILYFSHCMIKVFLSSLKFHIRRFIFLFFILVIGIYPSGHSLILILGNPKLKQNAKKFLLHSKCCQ
# PROTOCOL TEXT: Calcium imaging assay (FLIPR), HEK293T-Gα16gust44 cells transfected with human TAS2R1
# Assay type: cell-based
# CONDITION INFO: Time 227.547 s
Here, each record is paired with measured RLU data.
Write it as a number; the unit RLU goes unstated.

C[C@H](CCC(=O)NCCS(=O)(=O)O)[C@H]1CC[C@H]2[C@@H]3[C@H](O)C[C@@H]4C[C@H](O)CC[C@]4(C)[C@H]3C[C@H](O)[C@]12C [Taurocholic Acid, taurocholic acid] | 33.794
C[C@H](CCC(=O)NCCS(=O)(=O)O)[C@H]1CC[C@H]2[C@@H]3CC[C@@H]4C[C@H](O)CC[C@]4(C)[C@H]3CC[C@]12C [Taurolithocholic Acid, taurolithocholic acid] | -79.2952
C[C@H](CCC(=O)O)[C@H]1CC[C@H]2[C@@H]3CC[C@@H]4C[C@H](O)CC[C@]4(C)[C@H]3C[C@H](O)[C@]12C [Deoxycholic Acid, deoxycholic acid] | 187.946

Next item in the queue.
# input Please indicate recorded RLU of C[C@H](CCC(=O)NCC(=O)O)[C@H]1CC[C@H]2[C@@H]3[C@H](O)C[C@@H]4C[C@H](O)CC[C@]4(C)[C@H]3C[C@H](O)[C@]12C [Glycocholic Acid, glycocholic acid] measured with human TAS2R1 (Homo sapiens, UniProt Q9NYW7).
# output 89.1702
